Target: porcine beta-2 adrenoceptor (Sus scrofa)
Sequence (Q28997 whole entry): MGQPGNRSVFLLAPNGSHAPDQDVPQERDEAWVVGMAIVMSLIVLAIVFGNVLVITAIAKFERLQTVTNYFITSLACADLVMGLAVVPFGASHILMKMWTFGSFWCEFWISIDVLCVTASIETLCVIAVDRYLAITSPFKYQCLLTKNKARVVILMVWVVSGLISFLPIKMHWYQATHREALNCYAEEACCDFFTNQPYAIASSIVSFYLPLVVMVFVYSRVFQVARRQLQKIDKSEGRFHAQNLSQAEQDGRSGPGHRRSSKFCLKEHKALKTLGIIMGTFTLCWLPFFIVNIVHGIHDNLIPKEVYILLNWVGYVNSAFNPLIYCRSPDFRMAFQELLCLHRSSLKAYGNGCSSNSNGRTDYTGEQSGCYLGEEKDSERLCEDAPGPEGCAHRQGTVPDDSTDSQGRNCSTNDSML
Assay: cAMP assay in CHO cells transfected with the porcine beta-2 adrenoceptor (DiscoveRx Hit Hunter cAMP II)
Conditions: CHO cells transfected with porcine beta-2 adrenoceptor, 30 minutes incubation with compound
// assign Met if EC50 falls strictly below 7 nM, else Not met (ties count as Not met)

INSERT INTO assay_data (compound, assigned_category) VALUES
  ('CC(CCc1cncs1)N[C@@H]1CCn2c(=O)[nH]c3cccc(c32)[C@H]1O (single isomer, unassigned) [Example 6b]', 'Not met'),
  ('CC(CCn1nnc2ccccc21)N[C@@H]1CCn2c(=O)[nH]c3cccc(c32)[C@H]1O (single isomer, unassigned)', 'Met'),
  ('CC(CCc1c[nH]c2ccc(C#N)cc12)N[C@@H]1CCn2c(=O)[nH]c3cccc(c32)[C@H]1O (mixture of isomers)', 'Not met'),
  ('Cc1ncsc1CCC(C)N[C@@H]1CCn2c(=O)[nH]c3cccc(c32)[C@H]1O (mixture of isomers) [Example 34a]', 'Not met'),
  ('CC(CCc1cccc2cc[nH]c12)N[C@@H]1CCn2c(=O)[nH]c3cccc(c32)[C@H]1O (single isomer, unassigned) [Example 38a]', 'Not met'),
  ('CC(CCc1ccc(C(=O)O)o1)N[C@@H]1CCn2c(=O)[nH]c3cccc(c32)[C@H]1O (mixture of isomers)', 'Not met'),
  ('CCOC(=O)c1[nH]c2ccccc2c1CC(C)NC1CCn2c(=O)[nH]c3cccc(c32)C1O (single isomer, unassigned)', 'Not met'),
  ('CC(CCc1cccc(=O)[nH]1)N[C@@H]1CCn2c(=O)[nH]c3cccc(c32)[C@H]1O (mixture of isomers)', 'Met'),
  ('CC(CCn1cnnc1)N[C@@H]1CCn2c(=O)[nH]c3cccc(c32)[C@H]1O (single isomer, unassigned)', 'Not met'),
  ('CC(CCc1ccc(N)nc1)N[C@@H]1CCn2c(=O)[nH]c3cccc(c32)[C@H]1O (single isomer, unassigned)', 'Met'),
  ('Cc1nnsc1CCC(C)N[C@@H]1CCn2c(=O)[nH]c3cccc(c32)[C@H]1O (single isomer, unassigned)', 'Met'),
  ('Cc1nn(C)cc1CCC(C)N[C@@H]1CCn2c(=O)[nH]c3cccc(c32)[C@H]1O (single isomer, unassigned)', 'Not met'),
  ('CC(CCc1c[nH]c2cnccc12)NC1CCn2c(=O)[nH]c3cccc(c32)C1O (centres unmarked) [Example 32a]', 'Not met');

* * *

EC50 by entry:
Target: bovine beta-2 adrenoceptor (Bos taurus, UniProt Q28044)
Sequence (Q28044 whole entry): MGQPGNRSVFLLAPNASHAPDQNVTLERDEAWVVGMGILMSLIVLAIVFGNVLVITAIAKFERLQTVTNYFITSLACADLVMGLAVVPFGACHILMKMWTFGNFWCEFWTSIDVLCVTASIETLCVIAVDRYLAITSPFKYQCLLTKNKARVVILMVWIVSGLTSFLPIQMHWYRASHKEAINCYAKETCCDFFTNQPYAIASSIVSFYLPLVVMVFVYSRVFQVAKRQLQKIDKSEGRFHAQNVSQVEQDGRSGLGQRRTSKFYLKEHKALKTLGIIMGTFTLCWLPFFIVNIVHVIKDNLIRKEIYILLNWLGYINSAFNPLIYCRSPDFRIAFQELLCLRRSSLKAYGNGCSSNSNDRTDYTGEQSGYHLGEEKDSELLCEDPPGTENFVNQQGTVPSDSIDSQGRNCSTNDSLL
Experiment: cAMP assay in CHO cells transfected with the bovine beta-2 adrenoceptor (DiscoveRx Hit Hunter cAMP II)
Conditions: CHO cells transfected with bovine beta-2 adrenoceptor, 30 minutes incubation with compound
MEASURED PARAMETER: EC50 (nM)

INSERT INTO assay_data (compound, tested_system, measured_parameter, result_number) VALUES
  ('C[C@H](CCc1c[nH]c2ccccc12)N[C@@H]1CCn2c(=O)[nH]c3cccc(c32)[C@H]1O [Example 4e]', 'bovine beta-2 adrenoceptor (Bos taurus, UniProt Q28044)', 'EC50', 1.1),
  ('CC(CC(C)(C)c1c[nH]c2ccccc12)N[C@@H]1CCn2c(=O)[nH]c3cccc(c32)[C@H]1O (mixture of isomers)', 'bovine beta-2 adrenoceptor (Bos taurus, UniProt Q28044)', 'EC50', 114),
  ('CC(CCc1c[nH]c2cc(C#N)ccc12)N[C@@H]1CCn2c(=O)[nH]c3cccc(c32)[C@H]1O (single isomer, unassigned)', 'bovine beta-2 adrenoceptor (Bos taurus, UniProt Q28044)', 'EC50', 23),
  ('COc1ncc(CC[C@@H](C)N[C@@H]2CCn3c(=O)[nH]c4cccc(c43)[C@H]2O)s1', 'bovine beta-2 adrenoceptor (Bos taurus, UniProt Q28044)', 'EC50', 2.7),
  ('CC(CCc1cnn(C)c1)N[C@@H]1CCn2c(=O)[nH]c3cccc(c32)[C@H]1O (single isomer, unassigned)', 'bovine beta-2 adrenoceptor (Bos taurus, UniProt Q28044)', 'EC50', 5.2),
  ('CC(CCc1c[nH]c2ccccc12)NC1CCn2c(=O)[nH]c3cccc(c32)C1O (single isomer, unassigned) [Example 4b]', 'bovine beta-2 adrenoceptor (Bos taurus, UniProt Q28044)', 'EC50', 3.8),
  ('CC(CCc1cc(F)cc2cc[nH]c12)N[C@@H]1CCn2c(=O)[nH]c3cccc(c32)[C@H]1O (mixture of isomers) [Example 1a]', 'bovine beta-2 adrenoceptor (Bos taurus, UniProt Q28044)', 'EC50', 0.5),
  ('CC(CCc1cccc(=O)[nH]1)N[C@@H]1CCn2c(=O)[nH]c3cccc(c32)[C@H]1O (mixture of isomers) [Example 7a]', 'bovine beta-2 adrenoceptor (Bos taurus, UniProt Q28044)', 'EC50', 4.6),
  ('Cc1ncsc1CCC(C)N[C@@H]1CCn2c(=O)[nH]c3cccc(c32)[C@H]1O (mixture of isomers) [Example 34a]', 'bovine beta-2 adrenoceptor (Bos taurus, UniProt Q28044)', 'EC50', 23),
  ('CC(CCc1cn(Cc2ccccc2)c2ccccc12)N[C@@H]1CCn2c(=O)[nH]c3cccc(c32)[C@H]1O (mixture of isomers)', 'bovine beta-2 adrenoceptor (Bos taurus, UniProt Q28044)', 'EC50', 218),
  ('CC(CCc1cnsc1)N[C@@H]1CCn2c(=O)[nH]c3cccc(c32)[C@H]1O (single isomer, unassigned)', 'bovine beta-2 adrenoceptor (Bos taurus, UniProt Q28044)', 'EC50', 0.6),
  ('CC(CCc1ccccn1)NC1CCn2c(=O)[nH]c3cccc(c32)C1O (centres unmarked)', 'bovine beta-2 adrenoceptor (Bos taurus, UniProt Q28044)', 'EC50', 356),
  ('CC(CCc1c[nH]c2cnccc12)NC1CCn2c(=O)[nH]c3cccc(c32)C1O (centres unmarked) [Example 32a]', 'bovine beta-2 adrenoceptor (Bos taurus, UniProt Q28044)', 'EC50', 52),
  ('CC(CCc1c[nH]c2ccncc12)NC1CCn2c(=O)[nH]c3cccc(c32)C1O (centres unmarked) [Example 31a]', 'bovine beta-2 adrenoceptor (Bos taurus, UniProt Q28044)', 'EC50', 197);
